ASSAY_READOUT: melting point (°C)

1) CNC(=O)On1c(C(F)(F)F)nc2nc(Br)c(Cl)c(Br)c21 | 216

a. O=C(C=C1OC(=O)c2ccccc21)c1ccccc1
b. COc1cc(C(=O)Nc2ccc3ccc(Cl)nc3n2)cc(OC)c1OC
-- ask Field: lower recorded melting point (choose a or b ) Please identify the chosen entry by its label.
-- reply a

----------
ASSAY_READOUT: melting point

1) CCN(CC)C(=O)N1CCc2ccc(S(=O)(=O)NC(=O)NC3CCCCC3)cc2CC1 | 168 to 169 °C
2) CC(C)C(O)(c1ccccc1)c1cc(Cl)ccc1O (stereo not given) | 114 °C
3) CC(Oc1ccccc1)(c1ccc(O)cc1)c1ccc(O)cc1 | 172 to 174 °C
4) CSc1ccc(-c2ccc(C(F)(F)F)cc2)nc1F | 70 to 73 °C

--- query ---
// recorded melting point for "COC(=O)c1c2n(c(C)cc1=O)CCCC2" : 169 to 172 °C

----------
Catalogue of compounds with associated melting point

For this compound ( "CCOC(=O)c1c(N2CCN(C(=O)OCC)CC2)c2ccc(C)nc2n(CC)c1=O" ), measured melting point is 138 to 140 °C

Notebook: "CC(C)Oc1cc2c(cc1O)C(=O)CC(C)(C)O2" , melting point read as 138 to 139 °C

melting point recorded for this compound, "COc1ccc2c(c1)COc1c-2ccc2c(OC)cccc12" , is 166 to 167 °C

So for "COc1cc2c(cc1OC)C(c1ccco1)=NN=C(C)C2" , the logged melting point turned out to be 155 to 157 °C

Lab note: measured melting point of "O=C(O)c1ccccc1C(=O)c1cc(-c2ccccc2)c(O)c(-c2ccccc2)c1" was 234 °C

What the record says about Clc1ccc2c(NCCC34C=CCN3CCC4)ccnc2c1 (configuration not stated) : melting point is 124 to 125 °C

Record "O=C(O)c1nc2cc(N3CCCCC3)c([N+](=O)[O-])cc2[nH]c1=O" . Reported melting point: > 300 °C

# melting point (compound: "Oc1ccc(-c2cc(F)c3cc(O)ccc3c2)cc1" ) is 236 to 238 °C

melting point for "Cc1ccc(CC(N)=O)c(C)c1OC(F)F" is 136 to 137 °C

So, "Nc1ccc(-n2ncnc2-c2ccc(F)cc2)cc1" ? Its melting point was 147 to 150 °C

For "O=C(OCC(F)(F)F)c1ncn2c1CN=C(c1ccccc1)c1cc(Br)ccc1-2" the compound record lists melting point as 202 to 204 °C

Form: compound = "N#CCC(=O)c1ccc(C(F)(F)F)cc1[N+](=O)[O-]" ; melting point = 79.5 to 80.5 °C

The recorded melting point for entry O=C1NC(=NCc2ccccc2)C(c2ccc(Br)cc2)N1c1ccc2[nH]cnc2c1 (configuration not stated) equals 244 °C

Memo: CCNCC1CCN(c2c(F)cc3c(=O)c(C(=O)O)cn(C4CCCC4)c3c2F)C1 (configuration not stated) , reported melting point: 214 to 217 °C

Reported melting point of "CCn1c(C)nc2cc(S(C)(=O)=O)ccc21" : 140 to 142 °C

Lab note: "Cc1[nH]cnc1C(=O)OCc1ccccc1" gave melting point of 203 to 205 °C

Sample "CCCCCCCCc1ccc(CCC(CO)(CO)NC(C)=O)s1" ; melting point observed: 58 to 60 °C

Lab book: melting point of "Cc1cc(C)cc(-c2cn(C(C)C)c3ccccc23)c1" noted as 60 to 62 °C

Reported melting point ( "CCOC(=O)c1c(C#N)nn(-c2c(Cl)cc(C(F)(F)F)cc2Cl)c1N" ) = 202 °C

For this compound ( C[C@@H]1Oc2ccccc2C(=O)[C@H]1n1ccnc1 (relative stereo) ), measured melting point is 144 to 146 °C

melting point reported for this compound "O=C1C2=CSCCN2C(=O)N1c1ccc(Cl)cc1" : 155 to 158 °C
